- study target: sPLA2-IB (Homo sapiens, UniProt P04054)
- Sequence (P04054 23-148): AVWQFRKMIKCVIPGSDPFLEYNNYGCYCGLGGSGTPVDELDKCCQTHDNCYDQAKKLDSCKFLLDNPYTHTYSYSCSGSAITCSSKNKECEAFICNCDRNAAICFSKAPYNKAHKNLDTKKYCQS
- assay explanation: sPLA2 enzyme activity assay, Group IB
- condition context: recombinant human sPLA2-IB, data not shown
pIC50: −log10 of the molar value.
measured attribute: pIC50

## Task pIC50 lookup needed for O=C1c2c(O)cc(O)cc2O[C@H](c2ccc(O)cc2)[C@H]1c1c(O)cc(O)c2c(=O)cc(-c3ccc(O)c(O)c3)oc12 , thanks.
## Result < 5.00
